Each recorded value in this set is attributed to patent US7208500B2.

Listing: pKi of selected molecules
# TARGET OR TEST SYSTEM: unphosphorylated VEGF-R2D50 (FLVK), cytosolic domain of human VEGF-R2 (Homo sapiens, UniProt P35968, DEL940-989/E990V)
# Construct: VEGF-R2D50 contains residues 806–939 and 990–1171
# Sequence (P35968 with tags, fused parts or gaps DEL940-989/E990V limits assumed): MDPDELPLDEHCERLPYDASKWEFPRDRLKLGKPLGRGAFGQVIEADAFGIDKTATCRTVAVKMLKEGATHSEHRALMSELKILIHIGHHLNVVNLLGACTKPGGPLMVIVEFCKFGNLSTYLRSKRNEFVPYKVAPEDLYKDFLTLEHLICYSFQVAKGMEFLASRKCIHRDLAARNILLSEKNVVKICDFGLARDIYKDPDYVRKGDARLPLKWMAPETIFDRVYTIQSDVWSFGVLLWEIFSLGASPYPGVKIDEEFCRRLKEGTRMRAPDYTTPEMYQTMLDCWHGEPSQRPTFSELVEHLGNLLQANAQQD
# ASSAY INFO: VEGF-R2 coupled spectrophotometric assay (FLVK)
# Procedure: This construct determines the ability of a test compound to inhibit tyrosine kinase activity. […] The production of ADP from ATP that accompanies phosphoryl transfer was coupled to oxidation of NADH using phosphoenolpyruvate (PEP) and a system having pyruvate kinase (PK) and lactic dehydrogenase (LDH). The oxidation of NADH was monitored by following the decrease of absorbance at 340 nm (e340=6.22 cm^−1 mM^−1) using a Beckman DU 650 spectrophotometer. […]
pKi: −log10 of the molar value.

Need pKi of Cc1cc(NC(=O)Cc2ccc(Oc3ccnc4cc(C(=O)N5CCC5)sc34)cc2)no1 , thanks.
8.00 to 9.00

For O=C(Cc1ccc(Oc2ccnc3cc(C(=O)N4CC[C@@H](O)C4)sc23)cc1Cl)Nc1ccccn1 , what is its reported pKi?
8.00 to 9.00

Bench note: what pKi did Cc1cc(NC(=O)Cc2ccc(Oc3ccnc4cc(C(=O)N5CCC5)sc34)cc2Cl)on1 show?
> 9.00

Please give the measured pKi for this molecule: CCCCNC(=O)Oc1ccc(Oc2ccnc3cc(C(=O)N4CCC4)sc23)cc1
8.00 to 9.00

----------
# TARGET OR TEST SYSTEM: FGF-R1 intracellular kinase domain (Homo sapiens, UniProt P11362, C488A/C584S/L457V)
# Construct: starting from the endogenous methionine residue 456 to glutamate 766; made in house; host or cells: baculovirus vector expression system
# Sequence (P11362 456-766 L457V/C488A/C584S): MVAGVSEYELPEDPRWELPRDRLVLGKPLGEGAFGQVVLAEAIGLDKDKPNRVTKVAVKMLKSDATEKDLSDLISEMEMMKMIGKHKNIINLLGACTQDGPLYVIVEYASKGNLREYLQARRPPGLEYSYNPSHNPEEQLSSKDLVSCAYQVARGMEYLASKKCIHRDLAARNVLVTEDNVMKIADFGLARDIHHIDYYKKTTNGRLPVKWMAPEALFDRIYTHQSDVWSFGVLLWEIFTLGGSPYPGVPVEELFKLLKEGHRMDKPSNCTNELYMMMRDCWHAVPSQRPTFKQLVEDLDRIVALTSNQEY
# ASSAY INFO: FGF-R spectrophotometric assay
# Assay type: biochemical
# CONDITION CONTEXT: 50 nM test compound; read-out: FGF-P (% inh @ 50 nM)
As shown below, each of these molecules has a reported inhibition at 0.05 µM value.

{"columns": ["MOLECULE", "OUTCOME MEASURE", "TEST VALUE"],
 "data": [
  ["O=C(Cc1ccc(Oc2ccnc3cc(C(=O)N4CCC4)sc23)cc1)Nc1ccc(N2CCOCC2)nc1 [Example 38]", "inhibition at 0.05 µM", "0 to 5%"],
  ["O=C(Nc1ccccn1)C(O)c1ccc(Oc2ccnc3cc(C(=O)N4CCC4)sc23)cc1 (centres unmarked) [Example 84]", "inhibition at 0.05 µM", "5 to 10%"],
  ["O=C(Cc1ccc(Oc2ccnc3cc(C(=O)N4CC[C@@H](O)C4)sc23)cc1)Nc1ccccc1 [Example 20]", "inhibition at 0.05 µM", "0 to 5%"],
  ["CCCCNC(=O)Oc1ccc(Oc2ccnc3cc(C(=O)N4CCC4)sc23)cc1 [Example 86]", "inhibition at 0.05 µM", "0 to 5%"],
  ["Cc1cc(NC(=O)Cc2ccc(Oc3ccnc4cc(C(=O)N5CCC5)sc34)cc2Cl)no1 [Example 52]", "inhibition at 0.05 µM", "> 10%"]
]}

Dear colleague, I am looking for the recorded inhibition at 0.05 µM of the following molecule: Cc1cccc(NC(=O)Cc2ccc(Oc3ccnc4cc(C(=O)N5CCC5)sc34)cc2)n1 [Example 25]
5 to 10%

Field request: inhibition at 0.05 µM | item: CNC(=O)C(O)c1ccc(Oc2ccnc3cc(C(=O)N4CC[C@@H](OC)C4)sc23)cc1 (some centres unmarked) [Example 77]
0 to 5%

// inhibition at 0.05 µM lookup, key: O=C(Cc1ccc(Oc2ccnc3cc(C(=O)N4CCC4)sc23)cc1)Nc1ccc2[nH]ncc2c1 [Example 36]
0 to 5%
